Where do the numbers come from? From DBAASP.

Consider the following molecules; for each one, report its MIC.
Supply the numeric figure in µM, leaving out any unit text.

Enquiry: State its MIC on Salmonella enterica subsp. enterica serovar Typhimurium ATCC 14028: NCC(=O)N[C@@H](CCCN=C(N)N)C(=O)N[C@@H](Cc1c[nH]c2ccccc12)C(=O)N[C@@H](CCCN=C(N)N)C(=O)N[C@@H](Cc1c[nH]c2ccccc12)C(=O)N[C@@H](Cc1c[nH]c2ccccc12)C(=O)N[C@@H](Cc1c[nH]c2ccccc12)C(=O)N[C@@H](CCCN=C(N)N)C(=O)N[C@@H](Cc1c[nH]c2ccccc12)C(=O)N[C@@H](CCCN=C(N)N)C(=O)N[C@@H](Cc1c[nH]c2ccccc12)C(N)=O [GRWRWWWRWRW]
Return: 2

Enquiry: What MIC appears in the records for this molecule with Salmonella enterica subsp. enterica serovar Typhimurium ATCC 14028? NC(=O)[C@H](CCCN=C(N)N)NC(=O)[C@H](Cc1ccccc1)NC(=O)[C@H](Cc1ccccc1)NC(=O)[C@H](CCCN=C(N)N)NC(=O)[C@H](CCCN=C(N)N)NC(=O)[C@H](Cc1ccccc1)NC(=O)[C@H](CCCN=C(N)N)NC(=O)[C@H](CCCN=C(N)N)NC(=O)[C@H](Cc1ccccc1)NC(=O)[C@H](Cc1ccccc1)NC(=O)[C@@H](N)CCCN=C(N)N [RFFRRFRRFFR]
Return: 4
